assay: in vitro
assay_setup: human
reported_metric: cytotoxicity at 6 days, 100 μM (%)
Use % as the unit, but write only the number.

Read off the recorded cytotoxicity at 6 days, 100 μM for C[C@H]1COc2c(N3CCN(C)CC3)c(F)cc3c(=O)c(C(=O)O)cn1c23
36

Data origin, for the record: patent US20220308045A1
